- TESTED SYSTEM: HCV NS3 helicase NS3h_1b(con1) (Hepatitis C virus genotype 1b, UniProt Q9WMX2)
- Construct: truncated C-terminally His-tagged NS3 proteins lacking the N-terminal protease, called NS3h; His-tag (C); made in house
- Sequence (Q9WMX2 1192-1657): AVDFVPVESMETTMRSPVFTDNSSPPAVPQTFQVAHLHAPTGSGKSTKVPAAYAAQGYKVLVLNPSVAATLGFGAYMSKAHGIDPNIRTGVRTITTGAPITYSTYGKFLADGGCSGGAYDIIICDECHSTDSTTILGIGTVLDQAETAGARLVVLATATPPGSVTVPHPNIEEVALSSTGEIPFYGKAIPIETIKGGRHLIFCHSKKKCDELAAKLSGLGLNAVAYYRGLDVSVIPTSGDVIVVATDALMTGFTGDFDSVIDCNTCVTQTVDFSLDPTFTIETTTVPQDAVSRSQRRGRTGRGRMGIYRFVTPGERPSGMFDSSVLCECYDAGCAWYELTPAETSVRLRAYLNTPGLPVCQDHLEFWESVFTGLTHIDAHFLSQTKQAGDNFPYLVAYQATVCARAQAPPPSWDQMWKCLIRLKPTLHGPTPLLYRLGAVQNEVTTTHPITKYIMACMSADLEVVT
- EXPERIMENTAL PROTOCOL: MBHA screen of NCI mechanistic set library at 20 μM (percent inhibition, compound interference)
- Type: biochemical
- CONDITIONS: compounds at 20 μM, MBHA with a DNA substrate; calculated from Equation 1
PROPERTY LABEL: Inh. (%) (Inhibition)

Sample records with Inh. (%) (Inhibition):
>>> value("O=C1NC(c2cccc3ccccc23)Nc2ccc(Cl)cc21 (stereo not drawn) [Compound 175636]")
"−5.0"
>>> value("CC(=O)O[C@H]1C(=O)[C@@]2(C)[C@H]([C@H](OC(=O)c3ccccc3)[C@]3(O)C[C@H](O)C(C)=C1C3(C)C)[C@]1(OC(C)=O)CO[C@@H]1C[C@@H]2O [Compound 330753]")
"−24.1"
>>> value("Oc1[nH]c2ccccc2c1N=Nc1nc(-c2ccc(Br)cc2)cs1 [Compound 657456]")
"−6.1"

a: O=C1C=C(Nc2ccccc2C(=O)CC(=O)C(=O)Nc2ccc(Cl)cc2)c2ccccc2C1=O [Compound 641253]
b: COc1ccc2c(c1)C=C([N+](=O)[O-])C(C1OC(C)(C)OC1C1COC(C)(C)O1)O2 (stereo not drawn) [Compound 618261]
c: N#CC(=C1C=CC(=NO)C=C1)c1ccc(Cl)cc1 [Compound 405158]
Query: Arrange by Inh. (%) (Inhibition), high to low. Output spec: labels arranged per the requested ranking.
Result: c, b, a

* * *

- TESTED SYSTEM: HCV NS3 helicase NS3h_1b(con1) (Hepatitis C virus genotype 1b, UniProt Q9WMX2)
- Construct: truncated C-terminally His-tagged NS3 proteins lacking the N-terminal protease, called NS3h; His-tag (C); made in house
- EXPERIMENTAL PROTOCOL: biochemical
- Format: biochemical, hepatitis C virus genotype 1b(con1)
- CONDITIONS: standard HCV helicase MBHA (Table 9); read-out: DNA Unwinding IC50
PROPERTY LABEL: IC50 (µM)
Note: unit µM is implicit; provide only the numeric part.

Sample records with IC50:
>>> value("Cc1ccc2nc(-c3ccc4nc(-c5ccc(NC(=O)c6ccc(C(F)(F)F)c(F)c6)cc5)sc4c3)sc2c1S(=O)(=O)O [Compound 23]")
17
>>> value("Cc1cc2sc(-c3ccc(N)cc3)nc2cc1S(=O)(=O)O [Compound P1b]")
122
>>> value("CC(=O)Nc1ccc(-c2nc3ccc(-c4nc5ccc(C)c(S(=O)(=O)O)c5s4)cc3s2)cc1 [Compound 30]")
227

Query: Fill in: IC50 of Cc1ccc2nc(-c3ccc4nc(-c5ccc(NC(=O)c6ccccc6C(F)(F)F)cc5)sc4c3)sc2c1S(=O)(=O)O [Compound 19] is ___
Result: 14

Query: Would you mind doing Cc1ccc2nc(-c3ccc4nc(-c5ccc(NC(=O)c6ccccc6)cc5)sc4c3)sc2c1S(=O)(=O)O [Compound 5] as well?
Result: 11

Query: Would you mind doing COC(=O)c1ccc(C(=O)Nc2ccc(-c3nc4ccc(-c5nc6ccc(C)c(S(=O)(=O)O)c6s5)cc4s3)cc2)cc1 [Compound 9] as well?
Result: 10

Query: Would you mind doing Cc1ccc2nc(-c3ccc4nc(-c5ccc(N(C)C(=O)c6ccc7ccccc7c6)cc5)sc4c3)sc2c1S(=O)(=O)O [Compound 34] as well?
Result: 14

Recorded values, source patent US9464064B2.
